Origin of measurements: the EternaBench riboswitch data

System: MS2 coat protein
Assay: apparent Kd, MS2 coat protein; higher = weaker binding; RNA-MaP array; FMN 200 µM where present
Settings: designed as: OFF switch for flavin mononucleotide; no ligand
ASSAY_ENDPOINT: apparent Kd

Sample records with apparent Kd:
# RESIDUE_SEQUENCE, apparent Kd
records = [
    ("GCGGGCCGCGCAGGAUAUACAGGGUACAUGAGGAUCACCCAUGUCCUUGGUGAGAUCAUUUGCCCGUAGAAGGGCGAGGGUCGG", "44.3 nM"),
    ("AAUCCACAUGAGGAUCACCCAUGUCAGGAUAUGGUGACGCGGGUUUCGGUGCGUGUUGCCAGAAGGGACGGCUG", "27 nM"),
    ("AAGAAGUCAGGAUAUCCUGCUCGUCACUUGCGUGAUGAGUAGGAGAAGGGACAUGAGGAUCACCCAUGUAAAGA", "54.3 nM"),
    ("UCUGCUCGAGGAUAUACAUGAGGAUCACCCAUGUAUCCCUGUAGCAUGGCCUCAGGAUGUAGAAGGCGACGCUA", "14.9 nM"),
    ("UAUAUAUAGUAAGGAUAUGUAUUUAUAUUAUAAACAGAAGGUACUGACAUGAGGAUCACCCAUGUUUUAGUGUGGGCAUGUAGA", "77.9 nM"),
]

Would you be so kind as to report apparent Kd for each listed record?
1. GCAAGAACGGGUCAGUCCCAGAUGAGAAGGGUAGGUGGCGAUGAGUACAUGAGGAUCACCCAUGUACAGGAUAUCAUCAUUGUA
2. GCAGUAUCAGGAUAUACAUGAGGAUCACCCAUGUGACUCCAUAGGAAGCUAUGUGGAUGUAGAAGGGAUCACUG
3. UUCUUACAUGAGGAUCACCCAUGUCAGGAUAUCUCCUCACUGCGCUUGCGCAGUGGAUAGAGAAGGGACAGGCU
4. UUCAGACAUGAGGAUCACCCAUGUGAGGAUAUGAUGCAGCAGUGGUCUACGCUGUGCAUCAGAAGGCACAUGUG

Result:
1: 7.63 nM; 2: 54.6 nM; 3: 56.8 nM; 4: 140 nM

Provide each entry's apparent Kd from the list below.
1. UAUUUACAUGAGGAUCACCCAUGUCAGGAUAUGCGUCUAUCGUCGAAAGACGAUAGUUGCAGAAGGGACAAUAU
2. UUAUGUUUUGUAGGAUAUCAUUAGAUUUGUAAUUUAAUUGUAAUUUAGAUAUGAGAAGGACAUUUACAUGAGGAUCACCCAUGU
3. UUUUGGUCAGGAUAUUGUUAGUUUAGUUGUUUGUAUUAGUUCGAGAAGGGACAUGAGGAUCACCCAUGUGGUUU
4. UAUAUAUAGGCAGGAUAUACAUGAAUAUAUAUAAUAUAAUAUAAUGUAACAUGAGGAUCACCCAUGUAGAAGGGCCAAUAUAUA
5. GCCAGGAUGUGAGGAUAUGCUGAGGAUAACUCAGCAGAAGGCACAUGAGGAUCACCCAUGUAAACUUAUAAUAAAUACCCUGGC
6. GGAUCGAGUGUGAGGAUAUGCUGGUCCUUGGAUCAGCAGAAGGCACAUGAGGAUCACCCAUGUGAUAUCGAUCC

Result:
["62.8 nM", "16.1 nM", "71.8 nM", "30.6 nM", "13 nM", "56.1 nM"]
